Sourced from patent US20040023945A1

study.system: PDE1A (Homo sapiens)
measurement.name: IC50 (µM)
One number for each entry, in µM.

IC50 recorded for this compound, COC(=O)N1C[C@@H](c2ccc(OC)c(OC3CCCC3)c2)[C@](C)([C@@H](C)O)C1 , is 80

###

study.system: PDE1B (Homo sapiens, UniProt Q01064)
measurement.name: pIC50
Numbers only, as −log10 of the molar value.

pIC50 recorded for this molecule, COC(=O)N1C[C@@H](c2ccc(OC)c(OC3CCCC3)c2)[C@](C)([C@@H](C)O)C1 , is 4.00

###

study.system: PDE2 (Homo sapiens, UniProt O00408)
Sequence (O00408 whole entry): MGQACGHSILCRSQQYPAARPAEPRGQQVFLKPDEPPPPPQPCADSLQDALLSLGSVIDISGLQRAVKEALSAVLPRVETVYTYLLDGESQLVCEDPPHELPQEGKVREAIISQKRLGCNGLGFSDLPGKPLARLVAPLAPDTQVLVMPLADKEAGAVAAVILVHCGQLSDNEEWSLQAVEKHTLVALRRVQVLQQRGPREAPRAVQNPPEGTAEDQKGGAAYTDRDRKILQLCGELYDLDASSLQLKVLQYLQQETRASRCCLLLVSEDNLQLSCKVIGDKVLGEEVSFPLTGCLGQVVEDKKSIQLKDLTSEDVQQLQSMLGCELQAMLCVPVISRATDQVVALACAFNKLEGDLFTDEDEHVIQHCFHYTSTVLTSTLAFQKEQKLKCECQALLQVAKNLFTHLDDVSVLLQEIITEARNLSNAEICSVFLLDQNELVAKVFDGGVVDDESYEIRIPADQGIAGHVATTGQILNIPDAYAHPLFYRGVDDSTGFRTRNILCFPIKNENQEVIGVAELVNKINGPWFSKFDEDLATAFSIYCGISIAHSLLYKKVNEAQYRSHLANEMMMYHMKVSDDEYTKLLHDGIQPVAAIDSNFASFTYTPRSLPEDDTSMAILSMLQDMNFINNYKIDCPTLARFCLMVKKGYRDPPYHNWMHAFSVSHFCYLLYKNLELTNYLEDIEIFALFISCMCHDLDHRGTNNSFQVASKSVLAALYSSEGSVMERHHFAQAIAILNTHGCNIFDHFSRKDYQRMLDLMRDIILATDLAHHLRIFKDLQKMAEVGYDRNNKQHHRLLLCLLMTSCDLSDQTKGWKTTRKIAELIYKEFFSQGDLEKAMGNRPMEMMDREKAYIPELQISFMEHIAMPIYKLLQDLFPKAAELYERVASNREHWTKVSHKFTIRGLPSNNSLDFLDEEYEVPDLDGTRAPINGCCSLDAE
assay: Inhibition of PDE2
measurement.name: IC50 (µM)
Answers are plain numbers, in µM.

IC50 recorded for this compound, COC(=O)N1C[C@@H](c2ccc(OC)c(OC3CCCC3)c2)[C@](C)([C@@H](C)O)C1 [(C)] , is 450

###

study.system: PDE5 (Homo sapiens)
measurement.name: IC50 (µM)
Give bare numbers, in µM.

IC50 recorded for this compound, COC(=O)N1C[C@@H](c2ccc(OC)c(OC3CCCC3)c2)[C@](C)([C@@H](C)O)C1 , is 270

###

study.system: PDE3A (Homo sapiens, UniProt Q14432)
Sequence (Q14432 whole entry): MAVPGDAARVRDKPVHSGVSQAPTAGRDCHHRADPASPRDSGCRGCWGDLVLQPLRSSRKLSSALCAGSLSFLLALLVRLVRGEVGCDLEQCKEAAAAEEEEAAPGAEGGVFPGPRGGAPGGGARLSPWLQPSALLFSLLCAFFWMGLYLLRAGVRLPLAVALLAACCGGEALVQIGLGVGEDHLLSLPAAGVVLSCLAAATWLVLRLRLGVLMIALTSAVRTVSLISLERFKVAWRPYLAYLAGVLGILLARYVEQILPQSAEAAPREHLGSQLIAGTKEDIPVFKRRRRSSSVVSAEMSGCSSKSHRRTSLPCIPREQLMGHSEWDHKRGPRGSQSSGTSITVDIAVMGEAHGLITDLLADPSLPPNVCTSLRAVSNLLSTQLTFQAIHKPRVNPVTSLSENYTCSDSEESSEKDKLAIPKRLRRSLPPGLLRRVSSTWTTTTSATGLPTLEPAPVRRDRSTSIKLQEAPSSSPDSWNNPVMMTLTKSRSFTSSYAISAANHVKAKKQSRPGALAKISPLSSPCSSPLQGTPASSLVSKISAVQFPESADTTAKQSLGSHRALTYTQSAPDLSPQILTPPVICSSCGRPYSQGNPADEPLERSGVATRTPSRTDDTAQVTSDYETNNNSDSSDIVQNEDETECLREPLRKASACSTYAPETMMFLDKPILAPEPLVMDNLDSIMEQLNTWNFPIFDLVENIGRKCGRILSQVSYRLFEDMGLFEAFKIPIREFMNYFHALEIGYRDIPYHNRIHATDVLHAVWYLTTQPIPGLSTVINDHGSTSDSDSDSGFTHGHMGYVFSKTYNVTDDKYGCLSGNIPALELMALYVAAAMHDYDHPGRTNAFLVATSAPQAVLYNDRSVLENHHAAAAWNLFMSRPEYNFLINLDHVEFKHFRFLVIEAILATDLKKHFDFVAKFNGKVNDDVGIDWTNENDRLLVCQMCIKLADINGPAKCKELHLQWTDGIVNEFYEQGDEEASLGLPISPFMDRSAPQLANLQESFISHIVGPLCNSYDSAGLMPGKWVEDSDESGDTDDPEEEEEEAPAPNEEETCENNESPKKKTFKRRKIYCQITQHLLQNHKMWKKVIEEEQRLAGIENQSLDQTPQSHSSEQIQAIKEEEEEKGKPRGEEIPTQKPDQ
measurement.name: IC50 (µM)
One number for each entry, in µM.

IC50 recorded for this molecule, COC(=O)N1C[C@@H](c2ccc(OC)c(OC3CCCC3)c2)[C@](C)([C@@H](C)O)C1 , is 40

###

System: mouse
assay: Subjective assessment of mouse immobility (CNS side effects)
Format: in vivo
assay.context: subjective assessment of mouse immobility, i.p. 1, 10 and 100 mg/kg, 60 minutes
measurement.name: CNS Side Effects

{"compound": "COC(=O)N1CC(c2ccc(OC)c(OC3CCCC3)c2)[C@@](C)([C@@H](C)O)C1 (stereo partly drawn) [(B)]", "result": "No effect"}
{"compound": "COC(=O)N1C[C@@H](c2ccc(OC)c(OC3CCCC3)c2)[C@](C)([C@@H](C)O)C1 [(C)]", "result": "No effect"}
{"compound": "COC(=O)N1CC(c2ccc(OC)c(OC3CCCC3)c2)[C@](C)([C@H](C)O)C1 (stereo partly drawn) [(D)]", "result": "No effect"}

###

assay: Mouse locomotor activity assay (decrease in spontaneous mobility)
assay.context: female, Balb/c, in vivo, ip, read-out: ED50, effective dose that decreases spontaneous mobility 50% of control
measurement.name: ED50 (mg/kg)
Give bare numbers, in mg/kg.

ED50 recorded for this molecule, COc1ccc([C@@H]2CN(c3ccccn3)C[C@@]2(C)[C@@H](C)O)cc1OC1Cc2ccccc2C1 , is 83

###

study.system: human recombinant PDE4B (Homo sapiens)
Construct: made in house; host or cells: Saccharomyces cerevisiae strain YI23 harboring HDUN2.32
Sequence (Q07343 whole entry): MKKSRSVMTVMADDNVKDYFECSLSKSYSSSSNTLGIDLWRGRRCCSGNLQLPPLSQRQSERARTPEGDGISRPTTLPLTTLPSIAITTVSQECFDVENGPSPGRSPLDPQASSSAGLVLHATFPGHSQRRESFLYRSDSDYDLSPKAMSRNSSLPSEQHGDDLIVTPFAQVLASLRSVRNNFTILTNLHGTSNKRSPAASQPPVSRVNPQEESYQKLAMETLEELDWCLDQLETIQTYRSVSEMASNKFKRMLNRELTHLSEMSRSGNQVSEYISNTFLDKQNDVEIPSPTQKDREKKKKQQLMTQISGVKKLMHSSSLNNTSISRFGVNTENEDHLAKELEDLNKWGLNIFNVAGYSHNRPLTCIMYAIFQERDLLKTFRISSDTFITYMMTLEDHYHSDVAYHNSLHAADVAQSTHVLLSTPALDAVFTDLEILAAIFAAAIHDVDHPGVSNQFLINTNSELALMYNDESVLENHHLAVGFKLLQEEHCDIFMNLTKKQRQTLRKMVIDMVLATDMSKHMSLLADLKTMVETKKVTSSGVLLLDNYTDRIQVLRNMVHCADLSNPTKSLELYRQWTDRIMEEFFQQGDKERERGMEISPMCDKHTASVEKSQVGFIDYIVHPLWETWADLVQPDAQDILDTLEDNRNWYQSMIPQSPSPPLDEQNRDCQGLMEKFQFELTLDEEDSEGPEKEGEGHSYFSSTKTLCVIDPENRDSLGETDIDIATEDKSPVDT
assay: Inhibition of human recombinant PDE4B
Format: biochemical
assay.context: read-out: PDE4B IC50
Threshold 10 nM. IC50 below it: Criterion met. IC50 at it or above: Criterion not met.

Consider the worked cases shown below.
{"compound": "CCCC(O)C(=O)N1C[C@@H](c2ccc(OC)c(OCC3CC3)c2)[C@](C)([C@@H](C)O)C1 (some centres unmarked)", "study.system": "human recombinant PDE4B (Homo sapiens)", "group.label": "Criterion not met"}
{"compound": "COc1ccc([C@@H]2CN(C(=O)C(O)c3ccccc3)C[C@@]2(C)[C@@H](C)O)cc1OCC1CC1 (some centres unmarked)", "study.system": "human recombinant PDE4B (Homo sapiens)", "group.label": "Criterion met"}
{"compound": "COc1ccc([C@@H]2CN(C(=O)[C@@H](O)CO)C[C@@]2(C)[C@@H](C)O)cc1OCC#Cc1ccccc1", "study.system": "human recombinant PDE4B (Homo sapiens)", "group.label": "Criterion met"}
{"compound": "COc1ccc([C@@H]2CN(C(=O)[C@H](N)CO)C[C@@]2(C)[C@@H](C)O)cc1OCC1CC1.Cl [Example 109, hydrochloride]", "study.system": "human recombinant PDE4B (Homo sapiens)", "group.label": "Criterion not met"}

Then this compound:
Bench note: check whether COc1ccc([C@@H]2CN(C(=O)[C@@H](O)Cc3ccccc3)C[C@@]2(C)[C@@H](C)O)cc1OCC#Cc1ccccc1 shows IC50 below 10 nM
Criterion not met
